Just for reference, patent US20150119373A1 is where these values come from.

test system: HIV-1 strain 92HT599; test: Antiviral activity: p24 estimation in MT2 cells infected with HIV-1 strain 92HT599; assay type: cell-based; details: Human immunodeficiency virus 1; 100 nM; MT2 cells, HIV-1 92HT599, ~96 hours, p24; read-out: Antiviral activity % inhibition 100 nM
EXPERIMENTAL_READOUT: inhibition at 0.1 µM (%)
Answer in %, number only, no unit symbol.

Solved cases (7 shown):
get_value(item= [2H]C([2H])([2H])C(N1CCN(C(=O)[C@H]2C[C@@H](NC(=O)[C@]34CC[C@@H](C(=C)C)[C@@H]3[C@H]3CC[C@@H]5[C@@]6(C)CC[C@H](OC(=O)CC(C)(C)C(=O)O)C(C)(C)[C@@H]6CC[C@@]5(C)[C@]3(C)CC4)C2(C)C)CC1)C([2H])([2H])[2H] , readout=inhibition at 0.1 µM) returns 100

get_value(item= COCCOCCN1CCN(C(=O)[C@]23CC[C@@H](C4(C)CC4)[C@@H]2[C@H]2CC[C@@H]4[C@@]5(C)CC[C@H](OC(=O)[C@H]6C[C@@H](C(=O)O)C6(C)C)C(C)(C)[C@@H]5CC[C@@]4(C)[C@]2(C)CC3)CC1 , readout=inhibition at 0.1 µM) returns 100

get_value(item= [2H]C([2H])([2H])C(CC(=O)O[C@H]1CC[C@]2(C)[C@H]3CC[C@@H]4[C@H]5[C@H](C(=C)C)CC[C@]5(C(=O)N5CCN(CC)CC5)CC[C@@]4(C)[C@]3(C)CC[C@H]2C1(C)C)(C(=O)O)C([2H])([2H])[2H] , readout=inhibition at 0.1 µM) returns 100

get_value(item= CC1([C@@H]2CC[C@]3(C(=O)N4CCN(CCCN5CCOCC5)CC4)CC[C@]4(C)[C@H](CC[C@@H]5[C@@]6(C)CC[C@H](OC(=O)[C@H]7C[C@@H](C(=O)O)C7(C)C)C(C)(C)[C@@H]6CC[C@]54C)[C@@H]23)CC1 , readout=inhibition at 0.1 µM) returns 100

get_value(item= C=C(C)[C@@H]1CC[C@]2(c3nnc(-c4ccccc4)o3)CC[C@]3(C)[C@H](CC[C@@H]4[C@@]5(C)CC[C@H](OC(=O)[C@H]6[C@@H](CC(=O)O)C6(C)C)C(C)(C)[C@@H]5CC[C@]43C)[C@@H]12 , readout=inhibition at 0.1 µM) returns 49

get_value(item= CC(C)(CC(=O)O[C@H]1CC[C@]2(C)[C@H]3CC[C@@H]4[C@H]5[C@H](C6(C)CC6)CC[C@]5(C(=O)N5CCCCC5)CC[C@@]4(C)[C@]3(C)CC[C@H]2C1(C)C)C(=O)O , readout=inhibition at 0.1 µM) returns 97

get_value(item= COCCOCCOC1CCN(C(=O)[C@]23CC[C@@H](C4(C)CC4)[C@@H]2[C@H]2CC[C@@H]4[C@@]5(C)CC[C@H](OC(=O)[C@H]6C[C@@H](C(=O)O)C6(C)C)C(C)(C)[C@@H]5CC[C@@]4(C)[C@]2(C)CC3)CC1 , readout=inhibition at 0.1 µM) returns 97

Continuing:
get_value(item= CC(C)(CC(=O)O[C@H]1CC[C@]2(C)[C@H]3CC[C@@H]4[C@H]5[C@H](C6(C)CC6)CC[C@]5(C(=O)N5CCN(C(=O)C(C)(CO)CO)CC5)CC[C@@]4(C)[C@]3(C)CC[C@H]2C1(C)C)C(=O)O , readout=inhibition at 0.1 µM) returns 26

====

experiment: Cyto-toxicity assay (MTT) in MT2 cells without virus; assay type: cell-based; details: human
EXPERIMENTAL_READOUT: viability at 1000 nM
In your response, put the unit directly after the numeric value.

Solved cases (6 shown):
get_value(item= CC1([C@@H]2CC[C@]3(C(=O)N4CCC(C(=O)NCCN5CCOCC5)CC4)CC[C@]4(C)[C@H](CC[C@@H]5[C@@]6(C)CC[C@H](OC(=O)[C@H]7C[C@@H](C(=O)O)C7(C)C)C(C)(C)[C@@H]6CC[C@]54C)[C@@H]23)CC1 , readout=viability at 1000 nM) returns 96%

get_value(item= CCN1CCN(C(=O)[C@]23CC[C@@H](C4(C)CC4)[C@@H]2[C@H]2CC[C@@H]4[C@@]5(C)CC[C@H](OC(=O)[C@H]6C[C@@H](C(=O)O)C6(C)C)C(C)(C)[C@@H]5CC[C@@]4(C)[C@]2(C)CC3)CC1 , readout=viability at 1000 nM) returns 79%

get_value(item= [2H]C([2H])([2H])C(CC(=O)O[C@H]1CC[C@]2(C)[C@H]3CC[C@@H]4[C@H]5[C@H](C(=C)C)CC[C@]5(C(=O)N[C@@H]5C[C@H](C(=O)N6CCCCC6)C5(C)C)CC[C@@]4(C)[C@]3(C)CC[C@H]2C1(C)C)(C(=O)O)C([2H])([2H])[2H] , readout=viability at 1000 nM) returns 99%

get_value(item= C=C(C)[C@@H]1CC[C@]2(C(=O)N[C@@H]3C[C@H](C(=O)N4CCCCC4)C3(C)C)CC[C@]3(C)[C@H](CC[C@@H]4[C@@]5(C)CC[C@H](OC(=O)CC(C)(C)C(=O)OCOC)C(C)(C)[C@@H]5CC[C@]43C)[C@@H]12 , readout=viability at 1000 nM) returns 88%

get_value(item= C=C(C)[C@@H]1CC[C@]2(C(=O)O)CC[C@]3(C)[C@H](CC[C@@H]4[C@@]5(C)CC[C@H](OC(=O)[C@H]6[C@@H](CC(=O)O)C6(C)C)C(C)(C)[C@@H]5CC[C@]43C)[C@@H]12 , readout=viability at 1000 nM) returns 92%

get_value(item= Cc1nnc([C@H]2C[C@@H](NC(=O)[C@]34CC[C@@H](C5(C)CC5)[C@@H]3[C@H]3CC[C@@H]5[C@@]6(C)CC[C@H](OC(=O)[C@H]7C[C@@H](C(=O)O)C7(C)C)C(C)(C)[C@@H]6CC[C@@]5(C)[C@]3(C)CC4)C2(C)C)o1 , readout=viability at 1000 nM) returns 89%

Below: the item to evaluate.
get_value(item= CC(C)(CC(=O)O[C@H]1CC[C@]2(C)[C@H]3CC[C@@H]4[C@H]5[C@H]([C@@](C)(O)CO)CC[C@]5(C(=O)N[C@@H]5C[C@H](C(=O)N6CCCCC6)C5(C)C)CC[C@@]4(C)[C@]3(C)CC[C@H]2C1(C)C)C(=O)O , readout=viability at 1000 nM) returns 95%

====

test: Single dose oral pharmacokinetic study in mice; type: in vivo; conditions: mouse, plasma; Oral PK @ 30 mg/ kg dose in mice (Table 6)
In this section, each of the molecules is paired with its reported Cmax.
Answer in ng/mL, number only, no unit symbol.

get_value(item= COCCOC1CCN(C(=O)[C@]23CC[C@@H](C4(C)CC4)[C@@H]2[C@H]2CC[C@@H]4[C@@]5(C)CC[C@H](OC(=O)CC(C)(C)C(=O)O)C(C)(C)[C@@H]5CC[C@@]4(C)[C@]2(C)CC3)CC1 , readout=Cmax) returns 9200

get_value(item= CC(C)(CC(=O)O[C@H]1CC[C@]2(C)[C@H]3CC[C@@H]4[C@H]5[C@H](C6(C)CC6)CC[C@]5(C(=O)N5CCC(C#N)(c6ccccc6)CC5)CC[C@@]4(C)[C@]3(C)CC[C@H]2C1(C)C)C(=O)O , readout=Cmax) returns 5900

get_value(item= COC1CCN(C(=O)[C@]23CC[C@@H](C4(C)CC4)[C@@H]2[C@H]2CC[C@@H]4[C@@]5(C)CC[C@H](OC(=O)[C@H]6C[C@@H](C(=O)O)C6(C)C)C(C)(C)[C@@H]5CC[C@@]4(C)[C@]2(C)CC3)CC1 , readout=Cmax) returns 11700

Continuing:
get_value(item= CC1([C@@H]2CC[C@]3(C(=O)N4CCN(CCCN5CCOCC5)CC4)CC[C@]4(C)[C@H](CC[C@@H]5[C@@]6(C)CC[C@H](OC(=O)[C@H]7C[C@@H](C(=O)O)C7(C)C)C(C)(C)[C@@H]6CC[C@]54C)[C@@H]23)CC1 , readout=Cmax) returns 9200

====

system: HIV-1 strain 92HT599; assay: Antiviral activity: p24 estimation in MT2 cells infected with HIV-1 strain 92HT599; assay type: cell-based; conditions: Human immunodeficiency virus 1; 100 nM; MT2 cells, HIV-1 92HT599, ~96 hours, p24; read-out: Antiviral activity % inhibition 100 nM
In this section, each of the molecules is paired with its reported inhibition at 0.1 µM.
Answer in %, number only, no unit symbol.

Solved cases (3 shown):
Tested system HIV-1 strain 92HT599; inhibition at 0.1 µM recorded for CC(C)(CC(=O)O[C@H]1CC[C@]2(C)[C@H]3CC[C@@H]4C5[C@H](C6(C)CC6)CC[C@]5(C(=O)N[C@H]5C[C@@H](C(=O)N6CCOCC6)C5(C)C)CC[C@@]4(C)[C@]3(C)CC[C@H]2C1(C)C)C(=O)O (some centres unmarked) was 100

Tested system HIV-1 strain 92HT599; inhibition at 0.1 µM recorded for C=C(C)[C@@H]1CC[C@]2(C(=O)N3CCN(CC)CC3)CC[C@]3(C)[C@H](CC[C@@H]4[C@@]5(C)CC[C@H](OC(=O)[C@H]6[C@@H](CC(=O)O)C6(C)C)C(C)(C)[C@@H]5CC[C@]43C)[C@@H]12 was 91

Tested system HIV-1 strain 92HT599; inhibition at 0.1 µM recorded for CC(C)(CC(=O)O[C@H]1CC[C@]2(C)[C@H]3CC[C@@H]4[C@H]5[C@H](C6(C)CC6)CC[C@]5(C(=O)N5CCC(OCCN6CCOCC6)CC5)CC[C@@]4(C)[C@]3(C)CC[C@H]2C1(C)C)C(=O)O was 100

Continuing:
Tested system HIV-1 strain 92HT599; inhibition at 0.1 µM recorded for Cc1nnc([C@H]2C[C@@H](NC(=O)[C@]34CC[C@@H](C5(C)CC5)[C@@H]3[C@H]3CC[C@@H]5[C@@]6(C)CC[C@H](OC(=O)[C@H]7C[C@@H](C(=O)O)C7(C)C)C(C)(C)[C@@H]6CC[C@@]5(C)[C@]3(C)CC4)C2(C)C)o1 was 100

Tested system HIV-1 strain 92HT599; inhibition at 0.1 µM recorded for CC(CO)(CO)C(=O)N1CCN(C(=O)[C@]23CC[C@@H](C4(C)CC4)[C@@H]2[C@H]2CC[C@@H]4[C@@]5(C)CC[C@H](OC(=O)[C@H]6C[C@@H](C(=O)O)C6(C)C)C(C)(C)[C@@H]5CC[C@@]4(C)[C@]2(C)CC3)CC1 was 33

Tested system HIV-1 strain 92HT599; inhibition at 0.1 µM recorded for CC(C)(C)OC(=O)N1CCN(C(=O)[C@]23CC[C@@H](C4(C)CC4)[C@@H]2[C@H]2CC[C@@H]4[C@@]5(C)CC[C@H](OC(=O)[C@H]6C[C@@H](C(=O)O)C6(C)C)C(C)(C)[C@@H]5CC[C@@]4(C)[C@]2(C)CC3)CC1 was 68

Tested system HIV-1 strain 92HT599; inhibition at 0.1 µM recorded for CC(C)(C)OC(=O)N1CCN(C(=O)[C@]23CC[C@@H](C4(C)CC4)[C@@H]2[C@H]2CC[C@@H]4[C@@]5(C)CC[C@H](OC(=O)CC(C)(C)C(=O)O)C(C)(C)[C@@H]5CC[C@@]4(C)[C@]2(C)CC3)CC1 was 30

Tested system HIV-1 strain 92HT599; inhibition at 0.1 µM recorded for C=C(C)[C@@H]1CC[C@]2(C(=O)N[C@@H]3C[C@H](C(=O)N4CCCCC4)C3(C)C)CC[C@]3(C)[C@H](CC[C@@H]4[C@@]5(C)CC[C@H](OC(=O)CC(C)(C)C(=O)OCOC)C(C)(C)[C@@H]5CC[C@]43C)[C@@H]12 was 64
